# experimental target: human cloned 5-HT2B receptors (Homo sapiens, UniProt P41595)
# Construct: expressed in transfected cells; host or cells: CHO-K1 cells
# Sequence (P41595 whole entry): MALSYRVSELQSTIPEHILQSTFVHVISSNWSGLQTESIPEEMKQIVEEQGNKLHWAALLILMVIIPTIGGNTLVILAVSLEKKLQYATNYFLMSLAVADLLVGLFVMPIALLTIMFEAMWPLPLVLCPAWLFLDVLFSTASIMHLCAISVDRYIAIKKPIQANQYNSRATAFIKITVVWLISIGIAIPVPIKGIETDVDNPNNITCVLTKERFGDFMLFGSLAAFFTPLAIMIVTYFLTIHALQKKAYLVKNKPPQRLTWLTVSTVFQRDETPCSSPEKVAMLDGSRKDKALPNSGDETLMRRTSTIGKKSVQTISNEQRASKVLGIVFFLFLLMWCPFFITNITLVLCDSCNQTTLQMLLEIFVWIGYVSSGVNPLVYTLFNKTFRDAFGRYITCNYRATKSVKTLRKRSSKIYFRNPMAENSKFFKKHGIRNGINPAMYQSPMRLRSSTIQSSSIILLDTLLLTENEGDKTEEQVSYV
# run description: Human cloned 5-HT2B receptor binding assay ([3H]LSD, CHO-K1 membranes)
# test conditions: displacement of [3H]LSD (1 nM), read-out: 5-HT2B pKi (converted)
Parameter Ki: see the listing below.
readout type: Ki

smiles=Nc1nc(-c2c(OCc3ccccc3)ccc3ccccc23)co1 readout_type=Ki result="< 1000 nM"
smiles=COc1ccc2ccccc2c1-c1coc(NC(C)=O)n1 readout_type=Ki result="< 100 nM"
smiles=COc1ccc(-c2coc(N)n2)c2ccccc12 readout_type=Ki result="< 100 nM"
smiles=Nc1nc(-c2cccc3ccc(Br)cc23)co1 readout_type=Ki result="< 100 nM"
smiles=CC(C)c1nc(N)oc1-c1cccc2ccccc12 readout_type=Ki result="< 10 nM"
smiles=Nc1nc(-c2ccc3c(c2)OCCO3)co1 readout_type=Ki result="< 1000 nM"
smiles=Cc1oc(N)nc1-c1cccc2ccccc12 readout_type=Ki result="< 100 nM"
smiles=Cc1nc(N)oc1-c1cccc2ccccc12 readout_type=Ki result="< 10 nM"
smiles=COc1c(-c2coc(N)n2)ccc2ccccc12 readout_type=Ki result="< 1000 nM"
smiles=Nc1nc(-c2cccc3c(Br)cccc23)co1 readout_type=Ki result="< 10000 nM"
smiles=CC(=O)OCc1nc(N)oc1-c1cccc2ccccc12 readout_type=Ki result="< 100 nM"
smiles=COc1ccc2ccccc2c1-c1coc(N)n1 readout_type=Ki result="< 10 nM"
smiles=Cc1c(-c2coc(N)n2)sc2ccccc12 readout_type=Ki result="< 1000 nM"
smiles=Nc1nc(-c2ccc3ccccc3c2)co1 readout_type=Ki result="< 1000 nM"
smiles=CCOc1ccc2ccccc2c1-c1coc(N)n1 readout_type=Ki result="< 10 nM"
smiles=Nc1nc(-c2ccc(F)c3ccccc23)co1 readout_type=Ki result="< 100 nM"
smiles=Nc1nc(CO)c(-c2cccc3ccccc23)o1 readout_type=Ki result="< 100 nM"
smiles=CNc1nc(-c2cccc3ccccc23)co1 readout_type=Ki result="< 1000 nM"
smiles=NC(=O)c1ccc2cccc(-c3coc(N)n3)c2c1 readout_type=Ki result="< 10000 nM"
smiles=Cc1ccc2ccccc2c1-c1coc(N)n1 readout_type=Ki result="< 10 nM"
smiles=Nc1nc(-c2cccc3ccccc23)co1 readout_type=Ki result="< 100 nM"
smiles=CN(C)c1nc(-c2cccc3ccccc23)co1 readout_type=Ki result="< 1000 nM"
smiles=CC(C)c1nc(N)oc1-c1ccc(F)c2ccccc12 readout_type=Ki result="< 10 nM"
smiles=N#Cc1cccc2c(-c3coc(N)n3)cccc12 readout_type=Ki result="< 10000 nM"
